- experimental.system: mAChR M4 (Homo sapiens)
- Construct: expressed in transfected cells; host or cells: CHO-K1 cells stably transfected with M4 cDNA and chimeric G-protein Gqi5
- Sequence (P08173 1-479): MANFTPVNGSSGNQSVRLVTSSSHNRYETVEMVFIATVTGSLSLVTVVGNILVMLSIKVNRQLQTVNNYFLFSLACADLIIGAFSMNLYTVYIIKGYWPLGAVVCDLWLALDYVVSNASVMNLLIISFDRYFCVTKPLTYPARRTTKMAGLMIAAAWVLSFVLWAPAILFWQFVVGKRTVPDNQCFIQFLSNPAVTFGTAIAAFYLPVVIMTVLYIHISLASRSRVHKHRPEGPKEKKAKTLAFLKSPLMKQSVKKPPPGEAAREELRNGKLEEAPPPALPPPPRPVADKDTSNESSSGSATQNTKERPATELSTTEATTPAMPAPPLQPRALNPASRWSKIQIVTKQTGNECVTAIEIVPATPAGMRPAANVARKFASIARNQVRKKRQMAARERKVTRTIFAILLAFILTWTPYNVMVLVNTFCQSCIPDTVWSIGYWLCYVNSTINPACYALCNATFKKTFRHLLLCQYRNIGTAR
- experiment.description: mAChR M4 cell-based functional assay (calcium mobilization, potentiation of EC20 acetylcholine response)
- assay.setup: % ACh maximum at 30 μM
quantity.name: Emax at 30 µM (%)

Example entries and their recorded answers appear below.
Cc1nnc2sc(C(=O)NC3CN(c4nc5ccccc5o4)C3)c(N)c2c1C [Example B425]    74
Cc1nnc2sc(C(=O)NCc3cccc(OC(F)(F)F)c3)c(N)c2c1C [Example B410]    53
Cc1nnc2sc(C(=O)NCc3ccc(S(C)(=O)=O)c(F)c3)c(N)c2c1C [Example B33]    73
Cc1nnc2sc(C(=O)NC3CN(C(=O)OCc4ccccc4)C3)c(N)c2c1C [Example B124]    58
COc1ccc(-c2ccc(CNC(=O)c3sc4nnc(C)c(C)c4c3N)cc2)cn1 [Example B486]    61

(1) Cc1nnc2sc(C(=O)NC3CCN(c4ccncc4)C3)c(N)c2c1C (centres unmarked) [Example B266]
(2) COc1ccc(S(=O)(=O)C2CN(C(=O)c3sc4nnc(C)c(C)c4c3N)C2)cc1 [Example B417]
Exercise: Please compare: 1 and 2 . Report which one has the smaller Emax at 30 µM value. Write down the label attached to your selection.
Solution: 2
